Data provenance is patent US20240383856A1.

Experiment: Caco-2 permeability assay (CacoReady kit)
Format: in vitro ADME
Settings: human, Caco-2, Caco-2 barrier, CacoReady kit; above 1×10^−6 cm/s classified as permeable
As shown below, each of these compounds has a reported Papp value.
attribute.measured: Papp

                                    compound     reported_result
 0  CNC(=O)C(=O)CC[C@H](NC(=O)c1csc2ccccc12)C(=O)Nc1cccn(CC(=O)NC2C3CC4CC(C3)CC2C4)c1=O (stereo partly shown)  1 to 10 ×10⁻⁶ cm/s
 1  CNC(=O)C(=O)CC[C@H](NC(=O)c1sc(C(F)(F)F)nc1C)C(=O)Nc1cccn(CC(=O)N[C@@H]2C[C@@H]3CC[C@H]2C3)c1=O  1 to 10 ×10⁻⁶ cm/s
 2  CNC(=O)C(=O)CC[C@H](NC(=O)c1oc2ccccc2c1C)C(=O)Nc1cccn(CC(=O)N[C@@H]2C[C@@H]3C[C@H]([C@H]2C)C3(C)C)c1=O  1 to 10 ×10⁻⁶ cm/s
 3  CNC(=O)C(=O)CC[C@H](NC(=O)c1ccn(C)n1)C(=O)Nc1cccn(CC(=O)NC2C3CC4CC(C3)CC2C4)c1=O (stereo partly shown)      < 1 ×10⁻⁶ cm/s
 4  CNC(=O)C(=O)CC[C@H](NC(=O)c1snnc1CO)C(=O)Nc1cccn(CC(=O)NC2C3CC4CC(C3)CC2C4)c1=O (stereo partly shown)      < 1 ×10⁻⁶ cm/s
 5  CNC(=O)C(=O)CC[C@H](NC(=O)c1cn(C)nn1)C(=O)Nc1cccn(CC(=O)NC2C3CC4CC(C3)CC2C4)c1=O (stereo partly shown)  1 to 10 ×10⁻⁶ cm/s
 6  CNC(=O)C(=O)CC[C@H](NC(=O)c1cc(Br)co1)C(=O)Nc1cccn(CC(=O)NC2C3CC4CC(C3)CC2C4)c1=O (stereo partly shown)  1 to 10 ×10⁻⁶ cm/s
 7  CNC(=O)C(=O)CC[C@H](NC(=O)c1cncc([N+](=O)[O-])c1)C(=O)Nc1cccn(CC(=O)NC2C3CC4CC(C3)CC2C4)c1=O (stereo partly shown)      < 1 ×10⁻⁶ cm/s
 8  CNC(=O)C(=O)CC[C@H](NC(=O)c1cc(Cl)sc1Cl)C(=O)Nc1cccn(CC(=O)N[C@@H]2C[C@@H]3CC[C@H]2C3)c1=O  1 to 10 ×10⁻⁶ cm/s
 9  CNC(=O)C(=O)CC[C@H](NC(=O)c1coc(C(C)=O)n1)C(=O)Nc1cccn(CC(=O)NC23CC(C2)C3)c1=O      < 1 ×10⁻⁶ cm/s
10  CNC(=O)C(=O)CC[C@H](NC(=O)c1oc2ccccc2c1C)C(=O)Nc1cccn(CC(=O)NC2CC3C=CC2C3)c1=O (stereo partly shown)  1 to 10 ×10⁻⁶ cm/s
11  CNC(=O)C(=O)CC[C@H](NC(=O)c1oc2ccccc2c1C)C(=O)Nc1cccn(CC23CC4CC(CC(Br)(C4)C2)C3)c1=O  1 to 10 ×10⁻⁶ cm/s
12  CNC(=O)C(=O)CC[C@H](NC(=O)c1ccnnc1)C(=O)Nc1cccn(CC(=O)NC2C3CC4CC(C3)CC2C4)c1=O (stereo partly shown)      < 1 ×10⁻⁶ cm/s

###

Experiment: Caco-2 permeability assay (CacoReady kit)
Format: in vitro ADME
Conditions: human, Caco-2, Caco-2; read-out: Papp [cm/s] ×10^−6
attribute.measured: Papp

>>> df
                                   molecule  reported_result
0  CNC(=O)C(=O)CC[C@H](NC(=O)c1sc(C(F)(F)F)nc1C)C(=O)Nc1cccn(CC(=O)NC2C3CC4CC(C3)CC2C4)c1=O (stereo partly drawn) [II-15]   5.9 ×10⁻⁶ cm/s
1  CNC(=O)C(=O)CC[C@H](NC(=O)c1oc2ccccc2c1C)C(=O)Nc1cccn(CC(=O)NC2C3CC4CC(C3)CC2C4)c1=O (stereo partly drawn) [II-3]   8.4 ×10⁻⁶ cm/s
2  CNC(=O)C(=O)CC[C@H](NC(=O)c1cc(Cl)sc1Cl)C(=O)Nc1cccn(CC(=O)NC2C3CC4CC(C3)CC2C4)c1=O (stereo partly drawn) [II-28]   7.4 ×10⁻⁶ cm/s
